FYI, the data here is from ChEMBL document CHEMBL1921724.

- Tested on: SK-MEL-28
- Protocol: Growth inhibition of pro-apoptotic stimuli-resistant human SK-MEL-28 cells after 72 hrs by MTT assay
- Format: functional
- Test conditions: SK-MEL-28, 72 h
Metric: GI50 (µM)

• CCCCCCCC/C=C\CCCCCCCC(=O)O[C@H]1[C@H]2c3cc4c(cc3CN3CCC(=C[C@@H]1O)[C@H]23)OCO4 = 30
• O=c1c2cc3c(cc2c2cccc4c2n1CC4)OCO3 = 33
• O=C(O[C@H]1[C@H]2c3cc4c(cc3CN3CCC(=C[C@@H]1OC(=O)c1ccccc1)[C@H]23)OCO4)c1ccccc1 = 29
• CC(=O)O[C@H]1[C@H]2c3cc4c(cc3C(=O)N3CCC(=C[C@@H]1OC(C)=O)[C@H]23)OCO4 = 99
• CC/C=C\C/C=C\C/C=C\C/C=C\C/C=C\C/C=C\CCC(=O)O[C@H]1[C@H]2c3cc4c(cc3CN3CCC(=C[C@@H]1O)[C@H]23)OCO4 = 25
• C=CCO[C@H]1[C@H]2c3cc4c(cc3CN3CCC(=C[C@@H]1OCC=C)[C@H]23)OCO4 [DIALLYLLYCORINE] = 6
• CCC(=O)O[C@H]1[C@H]2c3cc4c(cc3CN3CCC(=C[C@@H]1OC(=O)CC)[C@H]23)OCO4 = 43
